# System: Monocotyledonous and dicotyledonous test plants
# TEST DETAILS: Example B1 herbicidal action, application post-emergence (Table B1a)
# Assay type: in vivo
# APPLIED CONDITIONS: Sida, 250 g/ha, evaluated after 3 weeks, scale 0-10
# Procedure: Monocotyledonous and dicotyledonous test plants were sown in seed trays in standard soil. […] After a test duration of 3 weeks (post-emergence) or 4 weeks (pre-emergence), the test was evaluated (10=total damage to plant, 0=no damage to plant).
Assign Yes whenever herbicidal damage rating, Sida does not fall below 2; assign No whenever it does.

> print(dat)
                                   compound  qualitative.label
1  CC1(C)CC(S(=O)(=O)C(c2c(F)cccc2F)C(F)(F)F)=NO1 (stereo not drawn) [Compound No. 1.113]                Yes
2  CC1(C)CC(S(=O)(=O)C(F)c2cccnc2Cl)=NO1 (stereo not drawn) [8.02]                Yes
3  CC1(C)CC(S(=O)(=O)C(F)(F)c2ccccc2F)=NO1 [1.94]                 No
4  CC1(C)CC(S(=O)(=O)C(F)(Cl)c2ccccc2OC(F)(F)F)=NO1 (stereo not drawn) [1.144]                Yes
5  COc1cc(OC)cc(C(F)(F)S(=O)(=O)C2=NOC(C)(C)C2)c1 [1.76]                Yes
6  CC(=O)C(c1c(F)cccc1F)S(=O)(=O)C1=NOC(C)(C)C1 (stereo not drawn) [Compound No. 1.27]                Yes
7  CC1(C)CC(S(=O)(=O)C(F)(F)c2cccnc2Cl)=NO1 [8.04]                 No

###

# 1 = melting point below 100 °C (exclusive); 0 = melting point at/above 100 °C

> print(dat)
                                    molecule  qualitative.label
 1  Cc1noc(C2CC2)c1C(Cl)(Cl)S(=O)(=O)C1=NOC(C)(C)C1                  1
 2  COc1cc(C(Cl)(Cl)S(=O)(=O)C2=NOC(C)(C)C2)on1                  0
 3  CC1(C)CC(S(=O)(=O)C(Cl)(CC=C(F)F)c2c(F)cccc2F)=NO1 (centres unmarked)                  0
 4  CC(=O)C(c1c(F)cccc1F)S(=O)(=O)C1=NOC(C)(C)C1 (centres unmarked)                  0
 5  CC1(C)CC(S(=O)(=O)C(F)(Cl)c2c(F)cccc2F)=NO1 (centres unmarked)                  0
 6  CC1(C)CC(S(=O)(=O)C(C(N)=O)c2c(F)cccc2F)=NO1 (centres unmarked)                  0
 7  CC1(C)CC(S(=O)(=O)C(Cl)(Br)c2c(F)cccc2F)=NO1 (centres unmarked)                  0
 8  CC1(C)CC(S(=O)(=O)C(Br)c2c(F)cccc2F)=NO1 (centres unmarked)                  0
 9  CC1(C)CC(S(=O)(=O)C(Cl)(Cl)c2c(F)cccc2F)=NO1                  0
10  CC1(C)CC(S(=O)(=O)C(Cc2ccc(F)cc2)c2c(F)cccc2F)=NO1 (centres unmarked)                  1
11  CC1(C)CC(S(=O)(=O)C(C(=O)NC2CC2)c2c(F)cccc2F)=NO1 (centres unmarked)                  0
12  Cc1onc(C2CC2)c1C(Cl)S(=O)(=O)C1=NOC(C)(C)C1 (centres unmarked)                  0

###

# Tested on: Monocotyledonous and dicotyledonous test plants
# TEST DETAILS: Example B1 herbicidal action, application pre-emergence (Table B1b)
# Format: in vivo
# APPLIED CONDITIONS: Amaranthus, 250 g/ha, evaluated after 4 weeks
MEASURED ENDPOINT: herbicidal action (damage rating 0-10), Amaranthus

> print(dat)
                                    molecule  measured.value
 1  CC1(C)CC(S(=O)(=O)C(F)(F)c2ccccc2OC(F)F)=NO1              10
 2  CC1(C)CC(S(=O)(=O)C(Cn2ccnc2)c2c(F)cccc2F)=NO1 (racemic)               3
 3  CC1(C)CC(S(=O)(=O)C(F)(F)c2ccccc2[S+]([O-])C(F)(F)F)=NO1 (racemic)               5
 4  CC1(C)CC(S(=O)(=O)C(F)(F)c2c(F)cccc2F)=NO1              10
 5  CC1(C)CC(S(=O)(=O)C(Cl)c2cccnc2Cl)=NO1 (stereo not drawn)               5
 6  Cn1nc(C(F)(F)F)c(C(F)(F)S(=O)(=O)C2=NOC(C)(C)C2)c1OCC(F)(F)F              10
 7  CC1(C)CC(S(=O)(=O)C(C(=O)C2CC2)c2c(F)cccc2F)=NO1 (stereo not drawn)               0
 8  COc1ccccc1C(Br)S(=O)(=O)C1=NOC(C)(C)C1 (stereo not drawn)               9
 9  CC1(C)CC(S(=O)(=O)C(F)(Cl)c2ccccc2C#N)=NO1 (racemic)              10
10  CC1(C)CC(S(=O)(=O)C(F)(Cl)c2cccc(F)c2F)=NO1 (stereo not drawn)              10
11  CC1(C)CC(S(=O)(=O)C(F)c2c(F)cccc2F)=NO1 (stereo not drawn)              10
12  CC1(C)CC(S(=O)(=O)C(CC=C(F)F)c2c(F)cccc2F)=NO1 (stereo not drawn)               0
13  COc1c(C(F)(F)S(=O)(=O)C2=NOC(C)(C)C2)c(C(F)(F)F)nn1C               8
14  CC1(C)CC(S(=O)(=O)C(Br)c2cc(F)cc3c2OCOC3)=NO1 (stereo not drawn)               3
15  Cc1noc(C)c1C(Cl)S(=O)(=O)C1=NOC(C)(C)C1 (stereo not drawn)               7
16  CC1(C)CC(S(=O)(=O)C(c2c(F)cccc2F)C(F)(F)F)=NO1 (stereo not drawn)               8
17  Cc1ccc(F)c(C(F)(Cl)S(=O)(=O)C2=NOC(C)(C)C2)c1F (stereo not drawn)               8
18  CC1(C)CC(S(=O)(=O)C(Cl)c2cc(F)cc3c2OCOC3)=NO1 (stereo not drawn)               5
19  COc1cc(OC)cc(C(F)(Cl)S(=O)(=O)C2=NOC(C)(C)C2)c1 (racemic)               9
20  CC1(C)CC(S(=O)(=O)C(F)(Cl)c2ccccc2C(F)(F)F)=NO1 (racemic)               7
21  CC1(C)CC(S(=O)(=O)C(C)(Br)c2c(F)cccc2F)=NO1 (stereo not drawn)               0
22  CC1(C)CC(S(=O)(=O)C(Cl)c2c(F)cccc2C(F)(F)F)=NO1 (racemic)               3
23  Cc1cccc(C(Cl)(Cl)S(=O)(=O)C2=NOC(C)(C)C2)c1               0
24  CC1(C)CC(S(=O)(=O)C(Br)c2ccc(F)cc2F)=NO1 (stereo not drawn)               6
25  CC1(C)CC(S(=O)(=O)C(Br)c2cc(F)cc(F)c2)=NO1 (stereo not drawn)               5
26  Cc1noc(C)c1C(Cl)(Cl)S(=O)(=O)C1=NOC(C)(C)C1               3
27  CC1(C)CC([S+]([O-])C(Cl)c2c(F)cccc2Cl)=NO1 (single isomer, unassigned) [1.33]               0
28  CC1(C)CC(S(=O)(=O)C(Cn2cncn2)c2c(F)cccc2F)=NO1 (racemic)               4
29  Cn1nc(C(F)(F)F)c(C([S+]([O-])C2=NOC(C)(C)C2)C(F)(F)F)c1OCC(F)(F)F (stereo not drawn)              10
30  CC1(C)CC(S(=O)(=O)C(F)(F)c2ccccc2C#N)=NO1              10
31  CC1(C)CC(S(=O)(=O)C(Cl)c2ccccc2OC(F)(F)F)=NO1 (stereo not drawn)               7
32  CC1(C)CC(S(=O)(=O)C(F)(Cl)c2cccnc2Cl)=NO1 (stereo not drawn)               8
33  COc1ccccc1C(F)(F)S(=O)(=O)C1=NOC(C)(C)C1               9
34  Cc1ccc(F)c(C(Cl)S(=O)(=O)C2=NOC(C)(C)C2)c1F (stereo not drawn)              10
35  CCC(Cl)(c1c(F)cccc1F)S(=O)(=O)C1=NOC(C)(C)C1 (stereo not drawn)               0
36  Cn1nc(C(F)(F)F)c(C(Cl)(Cl)S(=O)(=O)C2=NOC(C)(C)C2)c1OCC(F)(F)F              10
